System: Penicillium citrinum
Experiment: minimum inhibitory concentration, potato-dextrose agar dilution method
Assay type: cell-based
Conditions: Method (1) potato-dextrose agar dilution, read-out: Minimum inhibitory amount (minimum inhibitory concentration, 100% control)
PROPERTY: MIC (µg/mL)

CCCC(=O)Oc1ccccc1C(=O)NC=C(Cl)Cl [compound 16] ... 10
CC(=O)Oc1ccc(Cl)cc1C(=O)NC=C(Cl)Cl [Compound No. 5] ... 2.5
O=C(NC=C(Cl)Cl)c1ccccc1OC(=O)C(Cl)Cl [compound 20] ... 10
O=C(NC=C(Cl)Cl)c1cccc([N+](=O)[O-])c1O [compound 14] ... 10
CC(=O)Oc1ccccc1C(=O)NC=C(Cl)Cl [Compound No. 2] ... 10
O=C(NC=C(Cl)Cl)c1cc(Cl)cc(Cl)c1O [compound 26] ... 10
COc1ccccc1C(=O)NC=C(Cl)Cl [compound 24] ... 20
O=C(CCl)Oc1ccccc1C(=O)NC=C(Cl)Cl [compound 19] ... 10
CC(C)COC(=O)Oc1ccccc1C(=O)NC=C(Cl)Cl [compound 23] ... 10
CC(C)C(=O)Oc1ccccc1C(=O)NC=C(Cl)Cl [compound 17] ... 10

a = CCC(=O)Oc1ccccc1C(=O)NC=C(Cl)Cl [Compound No. 15]
b = Cc1cccc(C(=O)NC=C(Cl)Cl)c1O [compound 12]
Which record would sort first by descending MIC, a or b ? # answer = label of selected item
b
(b: 20 µg/mL, a: 10 µg/mL)

I = O=C(NC=C(Cl)Cl)c1cc(Br)ccc1O [compound 13]
II = COC(=O)Oc1ccccc1C(=O)NC=C(Cl)Cl [Compound No. 3]
III = CC(=O)Oc1c(Cl)cc(Cl)cc1C(=O)NC=C(Cl)Cl [compound 27]
Your job: order these 3 records by MIC, ascending. Your task in answering is to list the labels in the requested order.
III, I, II
(III: 5 µg/mL, I: 10 µg/mL, II: 20 µg/mL)

====

Tested on: Staphylococcus aureus
Experiment: minimum inhibitory concentration, glucose bouillon medium dilution method
Type: cell-based
Conditions: Method (2) glucose bouillon medium dilution, read-out: Minimum inhibitory amount (minimum inhibitory concentration, 100% control)
PROPERTY: MIC (µg/mL)

CC(=O)Oc1c(Cl)cc(Cl)cc1C(=O)NC=C(Cl)Cl [compound 27] ... 2.5
Cc1cccc(C(=O)NC=C(Cl)Cl)c1O [compound 12] ... 10
O=C(NC=C(Cl)Cl)c1ccccc1OC(=O)C(Cl)Cl [compound 20] ... 10
CC(C)COC(=O)Oc1ccccc1C(=O)NC=C(Cl)Cl [compound 23] ... 5
COc1ccccc1C(=O)NC=C(Cl)Cl [compound 24] ... 10

A = O=C(CCl)Oc1ccccc1C(=O)NC=C(Cl)Cl [compound 19]
B = CC(=O)Oc1ccc(Cl)cc1C(=O)NC=C(Cl)Cl [Compound No. 5]
// pick min by MIC: A , B # answer = label of selected item
B
(B: 1.3 µg/mL, A: 5 µg/mL)
